Counter-ions that a name gives are not always drawn.
quantityKind: melting point (°C)

# molecule, unit, numericValue
rows = [
    ("CC1(C)Cc2cccc(OCCNCc3cncc(C4=CCCC4)c3)c2O1 (as salt: fumarate)", "°C", 141),
]

I = C1=C(c2cccc(CNCCOc3cccc4c3OC3(CC3)C4)c2)CCC1 (as salt: maleate)
II = C1=C(c2cccc(CNCCOc3cccc4c3OCC4)c2)CCC1 (as salt: fumarate)
Please tell me which of the two, I or II , has the higher reported melting point value. To answer, give the label that identifies your chosen option.
I
(I: 180 °C, II: 118 °C)

====

# System: catalepsy
# assayMethodText: Cataleptigenic effects (catalepsy)
# Assay type: in vivo
# setupConditions: rat, in vivo; rats, oral route
quantityKind: ED50 (mg/kg)
Dear colleague, please return just the value in mg/kg, with no unit written.

# compound, unit, numericValue
data = [
    ("O=C(CCCN1CCC(O)(c2ccc(Cl)cc2)CC1)c1ccc(F)cc1 [haloperidol, reference compound]", "mg/kg", 0.92),
]

Next:
The compound listed as CNc1cc(OC)c(C(=O)NC2CCN(Cc3ccccc3)C2C)cc1Cl (stereo not shown) [nemonapride, reference compound] has a reported ED50 of 5

====

# targetOrTestSystem: 5-HT1A receptors (Homo sapiens, UniProt P08908)
# Sequence (P08908 whole entry): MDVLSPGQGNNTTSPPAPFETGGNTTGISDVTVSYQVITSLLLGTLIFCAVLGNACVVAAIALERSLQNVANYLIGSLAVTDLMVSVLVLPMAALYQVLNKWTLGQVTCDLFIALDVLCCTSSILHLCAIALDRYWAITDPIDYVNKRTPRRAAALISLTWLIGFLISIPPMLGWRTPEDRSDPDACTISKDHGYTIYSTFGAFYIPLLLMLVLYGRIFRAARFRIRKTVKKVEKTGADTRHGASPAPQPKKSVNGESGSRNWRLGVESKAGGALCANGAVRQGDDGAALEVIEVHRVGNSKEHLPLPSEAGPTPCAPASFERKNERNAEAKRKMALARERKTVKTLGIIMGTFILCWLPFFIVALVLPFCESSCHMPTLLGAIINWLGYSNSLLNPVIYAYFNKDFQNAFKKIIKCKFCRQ
# assayMethodText: Affinity for the 5-HT1A receptors, displacement of [3H]8-OH-DPAT
# Type: binding
quantityKind: affinity for the 5-HT1A receptors (in words)

Answered cases to consult:
# compound, result
data = [
    ("CC1(C)Cc2cccc(OCCNCc3cccc(C4=CCCC4)c3)c2O1", "high affinity"),
    ("CNc1cc(OC)c(C(=O)NC2CCN(Cc3ccccc3)C2C)cc1Cl (centres unmarked) [nemonapride, reference compound]", "high affinity"),
    ("C1=C(c2cccc(CNCCOc3cccc4c3OC3(CC3)C4)c2)CCC1", "high affinity"),
    ("O=C(CCCN1CCC(O)(c2ccc(Cl)cc2)CC1)c1ccc(F)cc1 [haloperidol, reference compound]", "low affinity"),
]

affinity for the 5-HT1A receptors (in words) reading for Cc1nc2n(c(=O)c1CCN1CCC(c3noc4cc(F)ccc34)CC1)CCCC2 [Risperidone, risperidone, reference compound] : low affinity

====

Counter-ions that a name gives are not always drawn.
quantityKind: melting point (°C)

# compound, unit, melting point
data = [
    ("CC1(C)Cc2cccc(OCCNCc3cccc(C4=CCCC4)c3)c2O1 (as salt: fumarate)", "°C", 146),
    ("Cc1cc2cccc(OCCNCc3cccc(C4=CCCC4)c3)c2o1 (as salt: fumarate)", "°C", 133),
    ("C1=C(c2cccc(CNCCOc3cccc4ccoc34)c2)CCC1 (as salt: fumarate)", "°C", 126),
    ("CC1(C)Cc2cccc(OCCNCc3cccc(C4=C(F)CCC4)c3)c2O1 (as salt: fumarate)", "°C", 145),
]
